# MIC per record follows
# Tested on: S. aureus (ATCC n° 29213), MSSA
endpoint name: MIC (µM)

                                 cpd_smiles  endpoint_name  endpoint_result
0  O=C(NCCCOCCCNC(=O)c1ccc(-c2ccc(Br)cc2)o1)c1ccc(-c2ccc(Br)cc2)o1            MIC               50
1                C#CCOC1=CC(=O)c2ccccc2C1=O            MIC               50
2  C=C/C(C)=C\C[C@]1(C)[C@H](C)C[C@H](O)[C@@]23C(=C[C@H](OC(=O)CCC)C[C@@H]12)[C@@H](OC(C)=O)O[C@H]3OC(C)=O            MIC              200
3            Cc1ccc(OCC(N)COc2ccc(C)cc2)cc1            MIC               50
4  CC(=O)O[C@@H]1[C@H](OC(C)=O)[C@H](C)O[C@H](n2cc(COC3=CC(=O)c4ccccc4C3=O)nn2)[C@H]1OC(C)=O            MIC              100

----------
# % of growth inhibition, MSSA (ATCC 29123) per record follows
# System: S. aureus (ATCC n° 29213), MSSA
# protocol text: Broth microdilution (CLSI): screening at 100 μM and MIC, MSSA
# Type: cell-based, Staphylococcus aureus
# assay context: at the concentration (MIC)
endpoint name: % of growth inhibition, MSSA (ATCC 29123) (%)

>>> df
                                   molecule  qualifier_operator  endpoint_result
0  Cc1ccc(OCC(N)COc2ccc(C)cc2)cc1 [Compound 4]                   =            97.80
1  O=C(NCCCOCCCNC(=O)c1ccc(-c2ccc(Br)cc2)o1)c1ccc(-c2ccc(Br)cc2)o1 [Compound 6]                   >             99.9
2   C#CCOC1=CC(=O)c2ccccc2C1=O [Compound 3]                   =            96.52
3  CC(=O)O[C@@H]1[C@H](OC(C)=O)[C@H](C)O[C@H](n2cc(COC3=CC(=O)c4ccccc4C3=O)nn2)[C@H]1OC(C)=O [Compound 1]                   =            99.60
4  C=C/C(C)=C\C[C@]1(C)[C@H](C)C[C@H](O)[C@@]23C(=C[C@H](OC(=O)CCC)C[C@@H]12)[C@@H](OC(C)=O)O[C@H]3OC(C)=O [Compound 5]                   =            96.43
